Experimental system: Rab7 GTPase wildtype (dog), GST fusion
Protocol summary: inhibition of fluorescent GTP loading on Rab7 – biochemical, dog Rab7, bead multiplex flow cytometry, Bodipy-FL-GTP, pyrazoline series, SAR follow-up (AID 2041)
Condition notes: Bead-based flow cytometry, Bodipy-FL-GTP binding; Ki calculated from EC50
Measure name: Ki (nM)
Respond with the bare value in nM.

Clc1ccc(N2N=C(c3ccccc3)CC2c2ccccc2)cc1 (centres undefined); 430
COc1ccc(C2=NN(c3ccccc3)C(c3ccc(Cl)cc3)C2)cc1 (centres undefined); 40
COc1ccc(C2CC(c3ccc(F)cc3)=NN2c2cc(Cl)ccc2Cl)cc1 (centres undefined); 730

Pending compound:
# lookup: Ki of COc1ccc(C2CC(c3ccc(F)cc3)=NN2c2cccc(F)c2)cc1OC (centres undefined)
1470

Every entry's value here was drawn from PubChem BioAssay AID2041.
